# Experimental protocol: In vivo PK exposure in mouse model
# Applied conditions: male, NOD-SCID, po, 25 mg/kg
Property: concentration at 24 h

>>> result("COc1cc(-c2cncc3c2CCOc2cc(N4CCN(C)CC4)ccc2-3)cc(OC)c1OC")
"0 nM"
